B1: FEM1A (parent)
chain: NIVEYLIQEQPGQEQVAGGEAQPG

# Variants of: B1
# MEASUREMENT DESCRIPTION: protein stability index of a GFP-peptide fusion (GPS, HEK-293T) (PSI 1-6); higher = more stable;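 also: lentivirally expressed fusions sorted by FACS into six bins by GFP to DsRed ratio, PSI derived from sequencing read proportions per bin multiplied by bin number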
# CONDITION CONTEXT: c terminus: a fixed tail appended
OBSERVED PROPERTY: protein stability index
# answer = number (no unit)

>  <CONSTRUCT SEQUENCE>
NIVEYLIQEQPGQEQVAGGEAQPV

>  <protein stability index>
3.29

$$$$
>  <CONSTRUCT SEQUENCE>
NIVEYLIQEQPGQEQVAGDEAQPG

>  <protein stability index>
4.75

$$$$
>  <CONSTRUCT SEQUENCE>
NIVEYLTQEQPGQEQVAGGEAQPG

>  <protein stability index>
4.65

$$$$
>  <CONSTRUCT SEQUENCE>
NIVEYLIQEQPGQEEVAGGEAQPG

>  <protein stability index>
4.79

$$$$
>  <CONSTRUCT SEQUENCE>
NIVEYLEQEQPGQEQVAGGEAQPG

>  <protein stability index>
5.3

$$$$

Any idea what its protein stability index is? The variant is "NIVEYLIQEQPGQESVAGGEAQPG" 4.52

Any idea what its protein stability index is? The variant is "NIVEYLIQEQPGQEQVADGEAQPG" 5.01

Any idea what its protein stability index is? The variant is "TIVEYLIQEQPGQEQVAGGEAQPG" 2.92

Any idea what its protein stability index is? The variant is "NIVEYLIQEQPGQEQVAGGEAQVG" 4.09

Any idea what its protein stability index is? The variant is "NIVEYLIQEQPGQEQVAGAEAQPG" 4.24

Any idea what its protein stability index is? The variant is "NIVEYLIQEEPGQEQVAGGEAQPG" 4.62

Any idea what its protein stability index is? The variant is "NIVEYLIQEQPGQEQVAGGSAQPG" 3.41

Any idea what its protein stability index is? The variant is "WIVEYLIQEQPGQEQVAGGEAQPG" 2.71

Any idea what its protein stability index is? The variant is "NIVEYLIQEQPGQEQVATGEAQPG" 4.2

Any idea what its protein stability index is? The variant is "NIVEYLIQEQPWQEQVAGGEAQPG" 2.89

Any idea what its protein stability index is? The variant is "NIVEYLIQEQPGQEQAAGGEAQPG" 4.52

Any idea what its protein stability index is? The variant is "NIVEYLIQEQPGQEQVAGGEAQPL" 4.05

Any idea what its protein stability index is? The variant is "NIVEYLIQEQPGGEQVAGGEAQPG" 4.18

Any idea what its protein stability index is? The variant is "SIVEYLIQEQPGQEQVAGGEAQPG" 3.7

Any idea what its protein stability index is? The variant is "NIVEYLIQEQPGQAQVAGGEAQPG" 4.06
